System: ACHN
measurement description: NCI tumour cell line growth inhibition, 48 h
Activity calls are given as the source filed them. Rule as the data show it: active = GI50 up to about 1.1 µM and inactive = higher.
Outcome codes: label 1 = active, label 0 = inactive

>>> answer_label("Cc1nn(C)c(=S)n(C)c1=O")
"label 1"
>>> answer_label("CCOc1ccccc1/N=N/C1C(=O)N(C(=O)CC(=O)Nc2ccccc2C)N=C1C (stereo not drawn)")
"label 0"
>>> answer_label("OC(c1ccc(C(F)(F)F)cc1)C(F)(F)c1nc2ccccc2o1 (stereo not drawn)")
"label 0"
>>> answer_label("COc1ccccc1CCN1CCN(CCCc2ccccc2)CC1")
"label 0"
>>> answer_label("Cc1nc2[nH]ncn2c(=O)c1CCO")
"label 0"
>>> answer_label("COc1cc2c(cc1OCc1ccccc1)NC(=S)[C@@H]1CCCN1C2=S")
"label 0"
>>> answer_label("COC(=O)Nc1nc2cc(NS(=O)(=O)c3ccc(Cl)cc3)ccc2[nH]1")
"label 0"
>>> answer_label("Cc1c(N(Cc2ccccc2)Cc2ccccc2)nc(S(C)(=O)=O)nc1S(C)(=O)=O")
"label 0"
>>> answer_label("CC[C@@]1(O)C(=O)OCc2c1cc1n(c2=O)Cc2cc3cc4c(cc3nc2-1)OCO4")
"label 1"
>>> answer_label("CC(C#N)N(CCc1ccccc1)C(=O)c1ccccc1 (stereo not drawn)")
"label 0"
>>> answer_label("Clc1cc(C(c2cc(Cl)sc2Cl)c2cc(Cl)sc2Cl)c(Cl)s1")
"label 0"
>>> answer_label("COc1cc(OC)c(OC)cc1/C=C1\\C=Cc2ccccc21")
"label 0"
>>> answer_label("COC(=O)c1ccccc1C1CN=NC12Cc1cc(C)c(C)cc1C2=O (stereo not drawn)")
"label 0"
>>> answer_label("COc1cccc(NC(=O)CSc2nnc(-c3ccc(/N=C\\c4ccc(Cl)cc4)cc3)o2)c1")
"label 0"
>>> answer_label("Cc1ccc(/C=N/C23CC4CC(CC(C4)C2)C3)cc1")
"label 0"
>>> answer_label("COCn1c(C)c(C)c2c(=O)oc(=O)[nH]c21")
"label 0"
>>> answer_label("O=c1c2ccccc2nc(N/N=C/c2ccc(Cl)cc2)n1-c1ccccc1")
"label 0"
>>> answer_label("CC1(c2cccc3ccccc23)OC(=O)c2ccccc21 (stereo not drawn)")
"label 0"
>>> answer_label("O=C(CCCn1ccnc1[N+](=O)[O-])NCCn1cnc([N+](=O)[O-])c1")
"label 0"
>>> answer_label("NC(=S)N/N=C1/CCCC2CCCC[C@@H]12 (stereo partly drawn)")
"label 0"
>>> answer_label("CC1(C=O)CC(CCc2ccccc2)NC1Cc1ccc(O)cc1 (stereo not drawn)")
"label 0"
>>> answer_label("CCN(CC)CC1CCCCN1CC(=O)N1c2ccc(Br)cc2C(=O)Nc2cccnc21 (stereo not drawn)")
"label 0"
>>> answer_label("NC1CCCCC1.O=P(O)(O)C(O)/C=C/c1ccccc1 (stereo not drawn)")
"label 0"
